test.target: CAT1 (cationic amino acid transporter 1, CAT1/SLC7A1) (Homo sapiens, UniProt P30825)
Construct: full-length human transporter stably transfected in HEK cells (HEK-CAT1); net uptake against HEK-VC vector control cells
Sequence (P30825 whole entry): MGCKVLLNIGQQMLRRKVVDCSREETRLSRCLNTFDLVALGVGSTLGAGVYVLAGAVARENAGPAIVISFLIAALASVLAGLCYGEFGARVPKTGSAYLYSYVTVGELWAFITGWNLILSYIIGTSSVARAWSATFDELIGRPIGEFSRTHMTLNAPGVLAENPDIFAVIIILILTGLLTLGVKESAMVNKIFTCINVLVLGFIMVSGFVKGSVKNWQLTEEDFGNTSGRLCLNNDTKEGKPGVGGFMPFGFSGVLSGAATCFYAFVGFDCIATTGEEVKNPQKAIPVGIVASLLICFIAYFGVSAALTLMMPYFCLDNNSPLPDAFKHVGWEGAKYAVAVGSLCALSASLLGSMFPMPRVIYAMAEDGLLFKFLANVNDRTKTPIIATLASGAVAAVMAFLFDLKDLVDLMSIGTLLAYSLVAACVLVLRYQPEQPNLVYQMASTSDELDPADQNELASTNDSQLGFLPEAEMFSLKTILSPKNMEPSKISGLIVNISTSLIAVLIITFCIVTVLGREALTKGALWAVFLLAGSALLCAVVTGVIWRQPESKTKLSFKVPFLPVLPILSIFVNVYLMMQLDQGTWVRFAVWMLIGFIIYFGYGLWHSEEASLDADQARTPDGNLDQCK
method.notes: cell-based
Parameters: species or system HEK-CAT1 (HEK293 stably transfected); Inhibition of net CAT1-mediated [3H]-ADMA (1 uM) uptake, 2.5 min, scintillation counting, vector control subtracted
experimental.context: HEK293; ADMA 1 uM as substrate; read-out: % Inhibition of ADMA uptake at 200 µM
Attribute: inhibition at 200 µM
measure.name: inhibition at 200 µM (%)

[
  {
    "molecule": "COc1ccc(Cl)cc1C(=O)NCCc1ccc(S(=O)(=O)NC(=O)NC2CCCCC2)cc1 [Glibenclamide]",
    "measure.name": "inhibition at 200 µM",
    "assay.value": 8.1
  },
  {
    "molecule": "CN(C)CCC=C1c2ccccc2CCc2ccccc21 [Amitriptyline]",
    "measure.name": "inhibition at 200 µM",
    "assay.value": -13.4
  },
  {
    "molecule": "Nc1ccc(S(=O)(=O)c2ccc(N)cc2)cc1 [Dapsone]",
    "measure.name": "inhibition at 200 µM",
    "assay.value": -11.8
  },
  {
    "molecule": "CCOc1nc2cccc(C(=O)O)c2n1Cc1ccc(-c2ccccc2-c2nnn[nH]2)cc1 [Candesartan]",
    "measure.name": "inhibition at 200 µM",
    "assay.value": 8.1
  },
  {
    "molecule": "O=C(O)Cc1ccccc1Nc1c(Cl)cccc1Cl [Diclofenac]",
    "measure.name": "inhibition at 200 µM",
    "assay.value": -21.2
  },
  {
    "molecule": "CN1CCOC(c2ccccc2)c2ccccc2C1 (centres unmarked) [Nefopam]",
    "measure.name": "inhibition at 200 µM",
    "assay.value": 32.6
  },
  {
    "molecule": "CC[C@H]1OC(=O)[C@H](C)[C@@H](O[C@H]2C[C@@](C)(OC)[C@@H](O)[C@H](C)O2)[C@H](C)[C@@H](O[C@@H]2O[C@H](C)C[C@H](N(C)C)[C@H]2O)[C@](C)(O)C[C@@H](C)CN(C)[C@H](C)[C@@H](O)[C@]1(C)O [Azithromycin]",
    "measure.name": "inhibition at 200 µM",
    "assay.value": 12.9
  },
  {
    "molecule": "Cc1ncc([N+](=O)[O-])n1CCO [Metronidazole]",
    "measure.name": "inhibition at 200 µM",
    "assay.value": -16.6
  }
]
